- Test system: DU-145
- Test description: Potency index, ratio of enzalutamide IC50 to test compound IC50 for human DU145 cells
- Assay type: functional
Value type: Ratio IC50

- O=C(Nc1cccc(S(F)(F)(F)(F)F)c1)c1ccc(Sc2ccc(O)cc2)cc1: <=8
- O=C(Nc1ccc(C(F)(F)F)cc1)c1ccc(Sc2ccc(O)cc2)cc1: <=8
- O=C(Nc1ccc(S(F)(F)(F)(F)F)cc1)c1ccc(Sc2ccc(O)cc2)cc1: <=8

###

- Test system: VCaP
- Test description: Potency index, ratio of enzalutamide IC50 to test compound IC50 for human VCaP cells
- Format: functional
Value type: Ratio IC50

As a guide, the following entries are already answered.
* O=C(Nc1cccc(C(F)(F)F)c1)c1ccc(Sc2ccc(O)cc2)cc1 | <=8
* O=C(Nc1cc(C(F)(F)F)cc(C(F)(F)F)c1)c1ccc(Sc2ccc(O)cc2)cc1 | <=8
* N#Cc1ccc(NC(=O)c2ccc(S(=O)(=O)c3cccc(C(F)(F)F)c3)cc2)cc1C(F)(F)F | <=8
* O=C(Nc1cccc(S(F)(F)(F)(F)F)c1)c1ccc(Sc2ccc(O)cc2)cc1 | <=8
* O=C(Nc1cccc(C(F)(F)F)c1)c1ccc(S(=O)(=O)c2ccc(O)cc2)cc1 | <=8

Input: If you can, please state the reported Ratio IC50 value of `O=C(Nc1ccc(C(F)(F)F)cc1)c1ccc(S(=O)(=O)c2ccc(O)cc2)cc1` .
Output: <=8

Input: Now give it for `O=C(Nc1cc(C(F)(F)F)cc(C(F)(F)F)c1)c1ccc(S(=O)(=O)c2ccc(O)cc2)cc1` too.
Output: <=8

Input: Now give it for `N#Cc1ccc(NC(=O)c2ccc(Sc3cccc(C(F)(F)F)c3)cc2)cc1C(F)(F)F` too.
Output: <=8

Input: Now give it for `O=C(Nc1ccc(S(F)(F)(F)(F)F)cc1)c1ccc(S(=O)(=O)c2ccc(O)cc2)cc1` too.
Output: <=8

Data origin, for the record: ChEMBL document CHEMBL4261530
